The listing below reports SFV replication % left (surviving fraction, remaining percentage of SFV replication) for molecules tested on SFV-Rluc.
Counter-ions that a name gives are not always drawn.
# output: bare number, implied unit %

input: Looking for the measured SFV replication % left (surviving fraction, remaining percentage of SFV replication) of Oc1cccc(O)c1 [PC-181] , can you help?
output: 67.1

input: Looking for the measured SFV replication % left (surviving fraction, remaining percentage of SFV replication) of Nc1ccc(S(=O)(=O)Nc2ccccn2)cc1 , can you help?
output: 95.0

input: Looking for the measured SFV replication % left (surviving fraction, remaining percentage of SFV replication) of CC(=O)NS(=O)(=O)c1ccc(NC(=O)c2ccccc2C(=O)O)cc1 [Phthalylsulfacetamide] , can you help?
output: 110.6

input: Looking for the measured SFV replication % left (surviving fraction, remaining percentage of SFV replication) of CC(C)NCC(O)COc1cccc2ccccc12 (centres unmarked) [Propranolol hydrochloride] , can you help?
output: 74.0

Continuing:
input: Looking for the measured SFV replication % left (surviving fraction, remaining percentage of SFV replication) of COc1ccc(CN(CCN(C)C)c2ccccn2)cc1 [Pyrilamine maleate] , can you help?
output: 73.7

input: Looking for the measured SFV replication % left (surviving fraction, remaining percentage of SFV replication) of CC(=O)NS(=O)(=O)c1ccc(N)cc1 [Sulfacetamide] , can you help?
output: 100.8

input: Looking for the measured SFV replication % left (surviving fraction, remaining percentage of SFV replication) of O=C(O)c1cc(O)c(O)c(O)c1 , can you help?
output: 148.8

---

system: SFV-Rluc; details: primary screening of chemical libraries; compounds tested at 50 µM
Measured SFV replication % left by item
# output: bare number, implied unit %

input: Looking for the measured SFV replication % left of O=C1C[C@@H](c2ccc(O)cc2)Oc2cc(O)cc(O)c21 , can you help?
output: -0.0736

input: Looking for the measured SFV replication % left of Oc1cccc(O)c1 , can you help?
output: 83.0

Continuing:
input: Looking for the measured SFV replication % left of CN1CCCCC1CCN1c2ccccc2Sc2ccc([S+](C)[O-])cc21 (stereo not drawn) , can you help?
output: 131.1

---

tested on: SFV-Rluc; details: primary screening of chemical libraries; compounds tested at 50 µM
Returns the class for an entry based on its SFV replication % left. Class ranges: low range: < 40%; mid range: ≥ 40% and < 80%; high range: ≥ 80%

input: Which class is correct for the following compound? O=C(O)c1ccc(O)c(O)c1 [NC-077]
output: low range

input: Which class is correct for the following compound? Cc1c(C)c2c(c(C)c1O)CCC(C)(C(=O)O)O2 (stereo not shown) [NC-103]
output: mid range

input: Which class is correct for the following compound? C=CCC1(CC=C)C(=O)NC(=O)NC1=O [PC-008]
output: mid range

input: Which class is correct for the following compound? CC12CCC(CC1=O)C2(C)C (stereo not shown) [PC-036]
output: high range

input: Which class is correct for the following compound? CC(C)NCC(O)c1ccc(O)c(O)c1.CC(C)NCC(O)c1ccc(O)c(O)c1.O.O.O=S(=O)(O)O (stereo not shown) [PC-102]
output: high range

input: Which class is correct for the following compound? N[C@@H](Cc1ccc(O)c(O)c1)C(=O)O [PC-007]
output: mid range

Continuing:
input: Which class is correct for the following compound? CCN(CC)CCCC(C)Nc1ccnc2cc(Cl)ccc12.O=P(O)(O)O.O=P(O)(O)O (stereo not shown) [PC-044]
output: low range

input: Which class is correct for the following compound? CCN(CC)C(C)C(=O)c1ccccc1.Cl (stereo not shown) [PC-064]
output: mid range

input: Which class is correct for the following compound? O=c1oc2cc(O)ccc2cc1-c1nc2ccccc2o1 [NC-007]
output: low range

input: Which class is correct for the following compound? CC(C)Cc1ccc(C(C)C(=O)O)cc1 (stereo not shown) [PC-099]
output: high range

input: Which class is correct for the following compound? CC1=CC(=O)c2ccccc2C1=O [PC-109]
output: low range

input: Which class is correct for the following compound? CCOC(=O)c1ccc(O)cc1 [PC-075]
output: high range

---

The listing below reports SFV replication % left (surviving fraction, remaining percentage of SFV replication) for molecules tested on SFV-Rluc.
# output: bare number, implied unit %

Past entries and their recorded results:
input: Looking for the measured SFV replication % left (surviving fraction, remaining percentage of SFV replication) of CC(C)NCC(O)COc1cccc2ccccc12.Cl (stereo not shown) , can you help?
output: 74.0

input: Looking for the measured SFV replication % left (surviving fraction, remaining percentage of SFV replication) of CC(C)(C)NC[C@H](O)COc1cccc2c1CCCC2=O , can you help?
output: 59.6

input: Looking for the measured SFV replication % left (surviving fraction, remaining percentage of SFV replication) of Cc1cc(=O)oc2cc(O)cc(O)c12 [5,7-Dihydroxy-4-methylcoumarin] , can you help?
output: 66.7

input: Looking for the measured SFV replication % left (surviving fraction, remaining percentage of SFV replication) of Cc1cc(=O)oc2cc(O)c(O)cc12 [6,7-Dihydroxy-4-methylcoumarin] , can you help?
output: 131.1

input: Looking for the measured SFV replication % left (surviving fraction, remaining percentage of SFV replication) of Cc1c(C(C)C)c(=O)n(-c2ccccc2)n1C , can you help?
output: 50.9

input: Looking for the measured SFV replication % left (surviving fraction, remaining percentage of SFV replication) of COc1cc(OC)c2ccc(=O)oc2c1 , can you help?
output: 67.4

Continuing:
input: Looking for the measured SFV replication % left (surviving fraction, remaining percentage of SFV replication) of CCOc1ccc(NC(C)=O)cc1 [PC-150] , can you help?
output: 71.8

input: Looking for the measured SFV replication % left (surviving fraction, remaining percentage of SFV replication) of CC1=CC(=O)c2ccccc2C1=O [Menadione [2-Methyl-1,4-naphtoquinone]] , can you help?
output: 28.3

input: Looking for the measured SFV replication % left (surviving fraction, remaining percentage of SFV replication) of O=c1c(O)c(-c2cc(O)c(O)c(O)c2)oc2cc(O)cc(O)c12 , can you help?
output: 2.0

input: Looking for the measured SFV replication % left (surviving fraction, remaining percentage of SFV replication) of O=C1C[C@@H](c2ccc(O)cc2)Oc2cc(O)cc(O)c21 , can you help?
output: -0.0736

input: Looking for the measured SFV replication % left (surviving fraction, remaining percentage of SFV replication) of Oc1ccc(/C=C/c2cc(O)cc(O)c2)cc1 , can you help?
output: 103.4

input: Looking for the measured SFV replication % left (surviving fraction, remaining percentage of SFV replication) of NC(=O)c1ccccc1O [Salicylamide] , can you help?
output: 126.2

input: Looking for the measured SFV replication % left (surviving fraction, remaining percentage of SFV replication) of Nc1ccc(S(=O)(=O)Nc2ncccn2)cc1 , can you help?
output: 107.7

input: Looking for the measured SFV replication % left (surviving fraction, remaining percentage of SFV replication) of C[C@]12C=CC(=O)C=C1CC[C@@H]1[C@@H]2C(=O)C[C@@]2(C)[C@H]1CC[C@]2(O)C(=O)CO , can you help?
output: 85.0

input: Looking for the measured SFV replication % left (surviving fraction, remaining percentage of SFV replication) of O=C(O)c1ccccc1O , can you help?
output: 69.1

input: Looking for the measured SFV replication % left (surviving fraction, remaining percentage of SFV replication) of O=c1c(O)c(-c2ccc(O)c(O)c2)oc2c(O[C@@H]3O[C@H](CO)[C@@H](O)[C@H](O)[C@H]3O)c(O)cc(O)c12 , can you help?
output: 105.8

input: Looking for the measured SFV replication % left (surviving fraction, remaining percentage of SFV replication) of O=c1cc(-c2ccc(O)cc2)oc2cc(O)cc(O)c12 , can you help?
output: 18.0

input: Looking for the measured SFV replication % left (surviving fraction, remaining percentage of SFV replication) of CC(C)OC(=O)c1cc(O)c(O)c(O)c1 [Isopropyl gallate] , can you help?
output: 124.0

input: Looking for the measured SFV replication % left (surviving fraction, remaining percentage of SFV replication) of O=C1Nc2ccc(Cl)cc2C(c2ccccc2)=NC1O (stereo not shown) , can you help?
output: 79.1

input: Looking for the measured SFV replication % left (surviving fraction, remaining percentage of SFV replication) of CN1CCN=C(c2ccccc2)c2cc(Cl)ccc21 , can you help?
output: 87.5

input: Looking for the measured SFV replication % left (surviving fraction, remaining percentage of SFV replication) of O=C1Nc2ccc(Cl)cc2C(c2ccccc2Cl)=NC1O (stereo not shown) , can you help?
output: 98.2

input: Looking for the measured SFV replication % left (surviving fraction, remaining percentage of SFV replication) of Cc1cc2nc3c(=O)[nH]c(=O)nc-3n(C[C@H](O)[C@H](O)[C@H](O)CO)c2cc1C , can you help?
output: 43.1
